assay: Solubility in selected oil-based media; type: physicochemical; conditions: Peceol (oil-based medium), oil or lipid; in Peceol; read-out: Solubility, Concentration

{"compound": "O=S(=O)(Nc1cc(Cl)c(Oc2cnc3ccccc3c2)c(Cl)c1)c1ccc(Cl)cc1Cl.O=S(=O)(O)c1ccccc1 [besylate salt of compound 101]", "unitTag": "µg/mL", "solubility": 3940}

---

test: Solubility in selected oil-based media; format: physicochemical; details: Labrafac® CC (oil-based medium), oil or lipid; in Labrafac ® CC; read-out: Solubility, Concentration

{"compound": "O=S(=O)(Nc1cc(Cl)c(Oc2cnc3ccccc3c2)c(Cl)c1)c1ccc(Cl)cc1Cl.O=S(=O)(O)c1ccccc1 [besylate salt of compound 101]", "unitTag": "µg/mL", "solubility": 290}

---

test: Solubility in selected oil-based media; assay type: physicochemical; details: oil or lipid; in Super-refined soybean oil; read-out: Solubility, Concentration

{"compound": "O=S(=O)(Nc1cc(Cl)c(Oc2cnc3ccccc3c2)c(Cl)c1)c1ccc(Cl)cc1Cl.O=S(=O)(O)c1ccccc1 [besylate salt of compound 101]", "solubility, µg/mL": 40}
